Origin of values: the supplement of paper PMC12042874

Assay Procedure: amyloid nucleation score (Sup35N fusion, yeast selection) (log enrichment); library NNK1; higher = more nucleation; inactive = no reads after selection;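 also: zero at mode of non-aggregating sequences after 7 days selection at 30°C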
# cutoff 2 applies to amyloid nucleation score; >= gives rule met, < gives rule not met

Q: Could you please find out whether LVMMTDIANWRLPCYFSNLW has amyloid nucleation score that meets 2 or exceeds it?
A: rule not met

Q: Could you please find out whether GLIMYPRGYMCKSIT has amyloid nucleation score that meets 2 or exceeds it?
A: rule not met

###

Assay Procedure: amyloid nucleation score (Sup35N fusion, yeast selection) (log enrichment); library NNK2; higher = more nucleation; inactive = no reads after selection
Property: amyloid nucleation score; scope: individual substances
Reply with just the number.

Some entries whose results are on file:
VTMYPFRRIVGRQQLMAWLY    0.973
REQYPYINQHRP    2.52
VITEADRLFHWIWKESLGEE    4.86
RFRHGNDYGSYYFCGLLGSM    0.264
GLQSVDGLQNTYLGSNAVVD    0.87

Given item IFVLVS , the value recorded as its amyloid nucleation score is 0.131

Given item ARNYGRTWHTSEESWYFGEV , the value recorded as its amyloid nucleation score is 5.8

Given item YYQVVTNNLSI , the value recorded as its amyloid nucleation score is 0.129

Given item LYVLVLMVCYRYGGKF , the value recorded as its amyloid nucleation score is 4.38

###

Assay Procedure: amyloid nucleation score (Sup35N fusion, yeast selection) (log enrichment); library NNK2; higher = more nucleation; inactive = no reads after selection
Quantity: amyloid nucleation score

DIKAWLFVRSDIVDGGFADT    -0.405
KRQSRAVMVS    0.037
CKCSAAIDVRDYVS    -0.02
KRDFPISATSRLCVAFFFIY    -0.975
VTSYHFRMSCAVREALSSRY    4.26

Given item TTMYARFIFIVRDSEGMYCS , the value recorded as its amyloid nucleation score is 7.09

Given item IVTTKWGNSHVSSVRIKARL , the value recorded as its amyloid nucleation score is 5.42

###

Assay Procedure: amyloid nucleation score (Sup35N fusion, yeast selection) (log enrichment); library NNK3; higher = more nucleation; inactive = no reads after selection
Property: amyloid nucleation score; scope: individual sequences
Reply with just the number.

Some entries whose results are on file:
WFNLCYFG    2.5
SGYCYGFVMNDGHSSVRGDE    -0.215
GLMALNVMSVNTTEYCRAYW    0.56
LMNYRMGWWFVCENYNEML    0.571
YGIYWSETFRNSLCKIVNIL    0.66

Given item TCCVIICEFLRRMVSAQSSL , the value recorded as its amyloid nucleation score is 0.758

Given item GADKFSMLRVYGICRLGSAC , the value recorded as its amyloid nucleation score is -0.024

###

Assay Procedure: amyloid nucleation score (Sup35N fusion, yeast selection) (log enrichment); library NNK3; higher = more nucleation; inactive = no reads after selection
Quantity: amyloid nucleation score

Some entries whose results are on file:
IHGPGCRSCERSSVGLRSGL    inactive
VGVMLYWVKEFFVL    inactive
SSGVTVDGSMCRI    inactive
RRIFCLLVANDRLSMRVKCP    inactive
TMHGAQFCD    inactive
NYMTVRNGLIISIAPRRLRD    1.83
HFNRVLVPYAFSFIGKMEWF    inactive
HRTCITTNDDCLSRGTLP    inactive
SQRYLNLVPKYLSRLVMCGI    inactive
ICGCPTYCNEANLLLERN    inactive

Given item RHSNDCMNFEVIILIDSCLE , the value recorded as its amyloid nucleation score is inactive

Given item TGRAFIIPVHAFRYDSVVGV , the value recorded as its amyloid nucleation score is inactive

Given item KISISD , the value recorded as its amyloid nucleation score is inactive

Given item HWKLHALGRWAGQGFTR , the value recorded as its amyloid nucleation score is inactive

Given item CFAYCFLSLFEMRIWTN , the value recorded as its amyloid nucleation score is -0.074

Given item VWKIHYCFDVFIMV , the value recorded as its amyloid nucleation score is inactive

Given item NPGRYRGGRTAHIFPERDIR , the value recorded as its amyloid nucleation score is inactive

Given item TCCICIMSSYRLGRNLLIEL , the value recorded as its amyloid nucleation score is -0.075

Given item DCESQQLSSSMWDTPQRWLT , the value recorded as its amyloid nucleation score is inactive

Given item VTRQLYVMGFVGHDEEGVVS , the value recorded as its amyloid nucleation score is inactive

Given item FMNCWQRAGVRSLGVYGNSA , the value recorded as its amyloid nucleation score is 0.13

Given item SREQIVCQVRSITLAYKNSV , the value recorded as its amyloid nucleation score is inactive

Given item RTIYTLPSCEIEGDLWHLSG , the value recorded as its amyloid nucleation score is inactive

###

Assay Procedure: amyloid nucleation score (Sup35N fusion, yeast selection) (log enrichment); library NNK1; higher = more nucleation; inactive = no reads after selection
Quantity: amyloid nucleation score
Reply with just the number.

Some entries whose results are on file:
FRSFNGTCSGVQWSVFVIWV    -0.18
ISGIECQYTNGRRWGPPS    -0.323
VSRWSGEEPISCSYGTLR    -0.164
VFSKHRFSIYCSRYAEPTTR    0.002
AFCSAAVQAEICEWCNSIYA    -0.431
DGARDFRLRMLACSRLSRGI    0.053
EHLRFKKANNVLYVNESSSV    -1.59
GHGALSCMMNFHSTGGKVKS    0.667

Given item IWNSVARFRYSSMGFVVSAV , the value recorded as its amyloid nucleation score is -0.702

Given item QSLFFPFARFVTNILRYYKF , the value recorded as its amyloid nucleation score is -0.531

Given item AFDLTEVQFLRVVKS , the value recorded as its amyloid nucleation score is -0.259

Given item FRSLMLLDFTYHVVSGLRYK , the value recorded as its amyloid nucleation score is -0.609

Given item IMFTWWEYRLRSLEV , the value recorded as its amyloid nucleation score is -0.334

###

Assay Procedure: amyloid nucleation score (Sup35N fusion, yeast selection) (log enrichment); library NNK1; higher = more nucleation; inactive = no reads after selection
# cutoff -0.2 applies to amyloid nucleation score; >= gives y, < gives n

Field: example entries. Status: answers known.
SIRLPVIKRSRL    y
HYAVGRARNLGCLDLSQ    y

Q: Could you please find out whether YRYSVQVLNCAKGAENGVII has amyloid nucleation score that meets -0.2 or exceeds it?
A: y

Q: Could you please find out whether WFMVVSRNMFCV has amyloid nucleation score that meets -0.2 or exceeds it?
A: y

Q: Could you please find out whether FASRVCMRSNQKIPAWQLWS has amyloid nucleation score that meets -0.2 or exceeds it?
A: n

Q: Could you please find out whether TGSLLTSTWS has amyloid nucleation score that meets -0.2 or exceeds it?
A: n

Q: Could you please find out whether DSWRSIIGFRERVSTMQYLI has amyloid nucleation score that meets -0.2 or exceeds it?
A: y

Q: Could you please find out whether GETRVLHDKVGRKFGLCKDF has amyloid nucleation score that meets -0.2 or exceeds it?
A: y

###

Assay Procedure: amyloid nucleation score (Sup35N fusion, yeast selection) (log enrichment); library NNK2; higher = more nucleation; inactive = no reads after selection
Quantity: amyloid nucleation score
Reply with just the number.

Given item NTGWILPYCKRGNSALEGWL , the value recorded as its amyloid nucleation score is 4.31

###

Property: amyloid nucleation score; scope: individual substances
Assay Procedure: amyloid nucleation score (Sup35N fusion, yeast selection) (log enrichment); library NNK2; higher = more nucleation; inactive = no reads after selection
Reply with just the number.

Given item KNDLPRKKVL , the value recorded as its amyloid nucleation score is 0.128

Given item SKVLNGFYIWYHQVPQLYPL , the value recorded as its amyloid nucleation score is -1.19

Given item LVMVCMVSFENHYMLGTEVL , the value recorded as its amyloid nucleation score is 2.71

Given item TYIPGLVRTSLCGVA , the value recorded as its amyloid nucleation score is -0.245

Given item YFWDQGLHPVSFRESTYDLV , the value recorded as its amyloid nucleation score is -0.243

###

Assay Procedure: amyloid nucleation score (Sup35N fusion, yeast selection) (log enrichment); library NNK1; higher = more nucleation; inactive = no reads after selection
# cutoff 0.3 applies to amyloid nucleation score; >= gives satisfied, < gives not satisfied

Field: example entries. Status: answers known.
SGAYATVPVYQEWLSQIKLL    satisfied
VNVKSVRYRKMSLGVYLVDW    not satisfied
LRDTFPVLLAILCMNIINNC    not satisfied
DMNLRVDLYMKFEWSGLVER    not satisfied
GKENSVTGHRGYSDVAVGMQ    not satisfied
SSGAYSLSKWYQYRMFSVVL    not satisfied

Q: Could you please find out whether LAFMYVGKYARRGLTIYNLI has amyloid nucleation score that meets 0.3 or exceeds it?
A: not satisfied

Q: Could you please find out whether FLEKSFLCSWSLVRTEGEWA has amyloid nucleation score that meets 0.3 or exceeds it?
A: not satisfied

Q: Could you please find out whether AGMCSIC has amyloid nucleation score that meets 0.3 or exceeds it?
A: not satisfied

Q: Could you please find out whether HALEKLDKFRFTAS has amyloid nucleation score that meets 0.3 or exceeds it?
A: satisfied

Q: Could you please find out whether TWMLVEVVNCCLYTHVFYR has amyloid nucleation score that meets 0.3 or exceeds it?
A: satisfied

Q: Could you please find out whether RDFRYCFRCVIINMHRDHFQ has amyloid nucleation score that meets 0.3 or exceeds it?
A: satisfied

Q: Could you please find out whether SYRSYGSSSCSVWRTAAGDQ has amyloid nucleation score that meets 0.3 or exceeds it?
A: satisfied

Q: Could you please find out whether RHYSARQWQIWGFCDLPHSR has amyloid nucleation score that meets 0.3 or exceeds it?
A: not satisfied

Q: Could you please find out whether NLPLLFL has amyloid nucleation score that meets 0.3 or exceeds it?
A: not satisfied
